- Tested on: RERF-LC-KJ
- ASSAY_SUMMARY: relative viability (nuclei count vs DMSO), 5 days (fraction); higher = more cells survive
- ASSAY_SETUP: first compound 0.05 µM
So I've got a bunch of molecules here, and I need their relative viability values.

Required: relative viability, one value per molecule below.
1. Nc1ccn([C@@H]2O[C@H](CO)[C@@H](O)[C@@H]2O)c(=O)n1 [Cytarabine] + CC1(C)CCC(c2ccc(Cl)cc2)=C(CN2CCN(c3ccc(C(=O)NS(=O)(=O)c4ccc(N[C@H](CCN5CCOCC5)CSc5ccccc5)c(S(=O)(=O)C(F)(F)F)c4)cc3)CC2)C1 [Navitoclax] (partner 0.5 µM)
2. Nc1ccn([C@@H]2O[C@H](CO)[C@@H](O)[C@@H]2O)c(=O)n1 [Cytarabine] + Cc1nc(NC(=O)N2CCC[C@H]2C(N)=O)sc1-c1ccnc(C(C)(C)C(F)(F)F)c1 [Alpelisib] (partner 2 µM)

Result:
1.08
0.864

----------
- Tested on: NCI-H1993
- ASSAY_SUMMARY: relative viability (nuclei count vs DMSO), 5 days (fraction); higher = more cells survive
- ASSAY_SETUP: first compound 15.81 µM
MEASURED_PARAMETER: relative viability

Some entries whose results are on file:
Ask: So what's the measured relative viability for this one? O=C(O)CCCCC(CCSCc1ccccc1)SCc1ccccc1 (stereo not drawn) [CPI-613] + CC(=O)c1c(C)c2cnc(Nc3ccc(N4CCNCC4)cn3)nc2n(C2CCCC2)c1=O [Palbociclib] (partner 0.5 µM)
Result: 0.581

Ask: // same read-out, input: O=C(O)CCCCC(CCSCc1ccccc1)SCc1ccccc1 (stereo not drawn) [CPI-613] + O=C(c1cc(Cc2n[nH]c(=O)c3ccccc23)ccc1F)N1CCN(C(=O)C2CC2)CC1 [Olaparib] (partner 8 µM)
Result: 0.918

Continuing:
Ask: Entry O=C(O)CCCCC(CCSCc1ccccc1)SCc1ccccc1 (stereo not drawn) [CPI-613] + C[C@@H](Oc1cc(-c2cnn(C3CCNCC3)c2)cnc1N)c1c(Cl)ccc(F)c1Cl [Crizotinib] (partner 1 µM) : reported relative viability = ?
Result: 0.852

----------
- Test system: PC-3 [JPC-3]
- ASSAY_SUMMARY: relative viability (nuclei count vs DMSO), 5 days (fraction); higher = more cells survive
- ASSAY_SETUP: first compound 0.000632 µM
MEASURED_PARAMETER: relative viability
Numbers only.

Value sought for every listed compound: relative viability.
1. CC(=O)O[C@@]12CO[C@@H]1C[C@H](O)[C@@]1(C)C(=O)[C@H](O)C3=C(C)[C@@H](OC(=O)[C@H](O)[C@@H](NC(=O)OC(C)(C)C)c4ccccc4)C[C@@](O)([C@@H](OC(=O)c4ccccc4)[C@H]21)C3(C)C [Docetaxel] + Cc1nc(Nc2ncc(C(=O)Nc3c(C)cccc3Cl)s2)cc(N2CCN(CCO)CC2)n1 [Dasatinib] (partner 0.075 µM)
2. CC(=O)O[C@@]12CO[C@@H]1C[C@H](O)[C@@]1(C)C(=O)[C@H](O)C3=C(C)[C@@H](OC(=O)[C@H](O)[C@@H](NC(=O)OC(C)(C)C)c4ccccc4)C[C@@](O)([C@@H](OC(=O)c4ccccc4)[C@H]21)C3(C)C [Docetaxel] + CC(=O)c1c(C)c2cnc(Nc3ccc(N4CCNCC4)cn3)nc2n(C2CCCC2)c1=O [Palbociclib] (partner 0.5 µM)
3. CC(=O)O[C@@]12CO[C@@H]1C[C@H](O)[C@@]1(C)C(=O)[C@H](O)C3=C(C)[C@@H](OC(=O)[C@H](O)[C@@H](NC(=O)OC(C)(C)C)c4ccccc4)C[C@@](O)([C@@H](OC(=O)c4ccccc4)[C@H]21)C3(C)C [Docetaxel] + CS(=O)(=O)N1CCN(Cc2cc3nc(-c4cccc5[nH]ncc45)nc(N4CCOCC4)c3s2)CC1 [Pictilisib] (partner 1 µM)
4. CC(=O)O[C@@]12CO[C@@H]1C[C@H](O)[C@@]1(C)C(=O)[C@H](O)C3=C(C)[C@@H](OC(=O)[C@H](O)[C@@H](NC(=O)OC(C)(C)C)c4ccccc4)C[C@@](O)([C@@H](OC(=O)c4ccccc4)[C@H]21)C3(C)C [Docetaxel] + CC(C)C[C@H](NC(=O)[C@H](Cc1ccccc1)NC(=O)c1cnccn1)B(O)O [Bortezomib] (partner 0.002 µM)
5. CC(=O)O[C@@]12CO[C@@H]1C[C@H](O)[C@@]1(C)C(=O)[C@H](O)C3=C(C)[C@@H](OC(=O)[C@H](O)[C@@H](NC(=O)OC(C)(C)C)c4ccccc4)C[C@@](O)([C@@H](OC(=O)c4ccccc4)[C@H]21)C3(C)C [Docetaxel] + C[C@]1(O)C[C@@H](c2nc(-c3ccc4ccc(-c5ccccc5)nc4c3)c3c(N)nccn32)C1 [Linsitinib] (partner 1 µM)
6. CC(=O)O[C@@]12CO[C@@H]1C[C@H](O)[C@@]1(C)C(=O)[C@H](O)C3=C(C)[C@@H](OC(=O)[C@H](O)[C@@H](NC(=O)OC(C)(C)C)c4ccccc4)C[C@@](O)([C@@H](OC(=O)c4ccccc4)[C@H]21)C3(C)C [Docetaxel] + N=C(N)NC(=N)NCCc1ccccc1 [Phenformin] (partner 250 µM)
7. CC(=O)O[C@@]12CO[C@@H]1C[C@H](O)[C@@]1(C)C(=O)[C@H](O)C3=C(C)[C@@H](OC(=O)[C@H](O)[C@@H](NC(=O)OC(C)(C)C)c4ccccc4)C[C@@](O)([C@@H](OC(=O)c4ccccc4)[C@H]21)C3(C)C [Docetaxel] + O=C(c1cc(Cc2n[nH]c(=O)c3ccccc23)ccc1F)N1CCN(C(=O)C2CC2)CC1 [Olaparib] (partner 8 µM)

Result:
0.954
0.559
0.715
0.959
0.96
0.48
1.03

----------
- Test system: LOU-NH91
- ASSAY_SUMMARY: relative viability (nuclei count vs DMSO), 5 days (fraction); higher = more cells survive
- ASSAY_SETUP: first compound 0.5 µM
MEASURED_PARAMETER: relative viability
Numbers only.

A selection of reference data follows.
Ask: Data request, read-out relative viability, for Nc1ccn([C@@H]2O[C@H](CO)[C@@H](O)[C@@H]2O)c(=O)n1 [Cytarabine] + Cc1nc(NC(=O)N2CCC[C@H]2C(N)=O)sc1-c1ccnc(C(C)(C)C(F)(F)F)c1 [Alpelisib] (partner 2 µM)
Result: 0.462

Ask: Again, but for Nc1ccn([C@@H]2O[C@H](CO)[C@@H](O)[C@@H]2O)c(=O)n1 [Cytarabine] + COc1cccc2cc(-c3nc([C@H]4CC[C@H](C(=O)O)CC4)n4ncnc(N)c34)[nH]c12 [OSI-027] (partner 0.5 µM)
Result: 0.585

Ask: Now consider Nc1ccn([C@@H]2O[C@H](CO)[C@@H](O)[C@@H]2O)c(=O)n1 [Cytarabine] + NC(=O)Nc1cc(-c2cccc(F)c2)sc1C(=O)N[C@H]1CCCNC1 [AZD7762] (partner 0.2 µM) .
Result: 0.252

The record that follows has no relative viability shown yet.
Ask: # lookup: relative viability of COc1cc2nccc(Oc3ccc(NC(=O)Nc4cc(C)on4)c(Cl)c3)c2cc1OC [Tivozanib] + Nc1ncn([C@H]2C[C@H](O)[C@@H](CO)O2)c(=O)n1 [Decitabine] (partner 2 µM)
Result: 0.796

----------
Provide the reported relative viability of each item.
- System: NCI-H1703
- ASSAY_SUMMARY: relative viability (nuclei count vs DMSO), 5 days (fraction); higher = more cells survive
- ASSAY_SETUP: first compound 2.53 µM
Answers are plain numbers.

Ask: Which relative viability value belongs to Cc1cnc(-c2cnc(NCCNc3ccc(C#N)cn3)nc2-c2ccc(Cl)cc2Cl)[nH]1 + O=C(c1cc(Cc2n[nH]c(=O)c3ccccc23)ccc1F)N1CCN(C(=O)C2CC2)CC1 [Olaparib] (partner 8 µM) ?
Result: 0.486

Ask: Can you check O=c1[nH]c2ccccc2n1C1CCN(CCCC(c2ccc(F)cc2)c2ccc(F)cc2)CC1 [Pimozide] + CC1(C)CCC(c2ccc(Cl)cc2)=C(CN2CCN(c3ccc(C(=O)NS(=O)(=O)c4ccc(N[C@H](CCN5CCOCC5)CSc5ccccc5)c(S(=O)(=O)C(F)(F)F)c4)cc3)CC2)C1 [Navitoclax] (partner 0.5 µM) next?
Result: 0.801

Next compound, relative viability to be filled in.
Ask: Requested field: relative viability. Item: O=c1[nH]c2ccccc2n1C1CCN(CCCC(c2ccc(F)cc2)c2ccc(F)cc2)CC1 [Pimozide] + COc1cc2c(Oc3ccc(NC(=O)C4(C(=O)Nc5ccc(F)cc5)CC4)cc3F)ccnc2cc1OCCCN1CCOCC1 [Foretinib] (partner 0.25 µM)
Result: 0.37

----------
- System: NCI-H727
- ASSAY_SUMMARY: relative viability (nuclei count vs DMSO), 5 days (fraction); higher = more cells survive
- ASSAY_SETUP: first compound 8 µM
MEASURED_PARAMETER: relative viability
One number for each entry.

Some solved entries appear below for comparison.
Ask: Endpoint output: relative viability of O=c1[nH]c2ccccc2n1C1CCN(CCCC(c2ccc(F)cc2)c2ccc(F)cc2)CC1 [Pimozide] + CC1(C)CCC(c2ccc(Cl)cc2)=C(CN2CCN(c3ccc(C(=O)NS(=O)(=O)c4ccc(N[C@H](CCN5CCOCC5)CSc5ccccc5)c(S(=O)(=O)C(F)(F)F)c4)cc3)CC2)C1 [Navitoclax] (partner 0.5 µM) . Value?
Result: 0.379

Ask: # repeat for O=c1[nH]c2ccccc2n1C1CCN(CCCC(c2ccc(F)cc2)c2ccc(F)cc2)CC1 [Pimozide] + Cc1cc(Nc2cc(N3CCN(C)CC3)nc(Sc3ccc(NC(=O)C4CC4)cc3)n2)n[nH]1 [Tozasertib] (partner 0.1 µM)
Result: 0.496

Ask: Would you kindly repeat that for O=c1[nH]c2ccccc2n1C1CCN(CCCC(c2ccc(F)cc2)c2ccc(F)cc2)CC1 [Pimozide] + CS(=O)(=O)CCNCc1ccc(-c2ccc3ncnc(Nc4ccc(OCc5cccc(F)c5)c(Cl)c4)c3c2)o1 [Lapatinib] (partner 2 µM) ?
Result: 0.769

Ask: Item: O=c1[nH]c2ccccc2n1C1CCN(CCCC(c2ccc(F)cc2)c2ccc(F)cc2)CC1 [Pimozide] + CC(=O)c1c(C)c2cnc(Nc3ccc(N4CCNCC4)cn3)nc2n(C2CCCC2)c1=O [Palbociclib] (partner 0.5 µM)
Result: 0.609

Ask: Would you mind doing O=c1[nH]c2ccccc2n1C1CCN(CCCC(c2ccc(F)cc2)c2ccc(F)cc2)CC1 [Pimozide] + Cc1nc(NC(=O)N2CCC[C@H]2C(N)=O)sc1-c1ccnc(C(C)(C)C(F)(F)F)c1 [Alpelisib] (partner 2 µM) as well?
Result: 0.519

Give measured relative viability for every item shown.
1. O=c1[nH]c2ccccc2n1C1CCN(CCCC(c2ccc(F)cc2)c2ccc(F)cc2)CC1 [Pimozide] + O=C(c1cc(Cc2n[nH]c(=O)c3ccccc23)ccc1F)N1CCN(C(=O)C2CC2)CC1 [Olaparib] (partner 8 µM)
2. O=c1[nH]c2ccccc2n1C1CCN(CCCC(c2ccc(F)cc2)c2ccc(F)cc2)CC1 [Pimozide] + NC(=O)Nc1cc(-c2cccc(F)c2)sc1C(=O)N[C@H]1CCCNC1 [AZD7762] (partner 0.2 µM)
3. O=c1[nH]c2ccccc2n1C1CCN(CCCC(c2ccc(F)cc2)c2ccc(F)cc2)CC1 [Pimozide] + Nc1ncn([C@H]2C[C@H](O)[C@@H](CO)O2)c(=O)n1 [Decitabine] (partner 2 µM)
4. O=c1[nH]c2ccccc2n1C1CCN(CCCC(c2ccc(F)cc2)c2ccc(F)cc2)CC1 [Pimozide] + CC(=O)Nc1cccc(-n2c(=O)n(C3CC3)c(=O)c3c(Nc4ccc(I)cc4F)n(C)c(=O)c(C)c32)c1 [Trametinib] (partner 0.02 µM)
5. O=c1[nH]c2ccccc2n1C1CCN(CCCC(c2ccc(F)cc2)c2ccc(F)cc2)CC1 [Pimozide] + COc1cccc2cc(-c3nc([C@H]4CC[C@H](C(=O)O)CC4)n4ncnc(N)c34)[nH]c12 [OSI-027] (partner 0.5 µM)

Result:
1: 0.739; 2: 0.525; 3: 0.856; 4: 0.403; 5: 0.54

Cited source: the supplement of paper PMC10307832
